# assayed_system: Kdr (Homo sapiens, UniProt P35968)
# Construct: Kinases are expressed as either kinase domains or full length constructs; made in house
# Sequence (P35968 20-1356, species assumed): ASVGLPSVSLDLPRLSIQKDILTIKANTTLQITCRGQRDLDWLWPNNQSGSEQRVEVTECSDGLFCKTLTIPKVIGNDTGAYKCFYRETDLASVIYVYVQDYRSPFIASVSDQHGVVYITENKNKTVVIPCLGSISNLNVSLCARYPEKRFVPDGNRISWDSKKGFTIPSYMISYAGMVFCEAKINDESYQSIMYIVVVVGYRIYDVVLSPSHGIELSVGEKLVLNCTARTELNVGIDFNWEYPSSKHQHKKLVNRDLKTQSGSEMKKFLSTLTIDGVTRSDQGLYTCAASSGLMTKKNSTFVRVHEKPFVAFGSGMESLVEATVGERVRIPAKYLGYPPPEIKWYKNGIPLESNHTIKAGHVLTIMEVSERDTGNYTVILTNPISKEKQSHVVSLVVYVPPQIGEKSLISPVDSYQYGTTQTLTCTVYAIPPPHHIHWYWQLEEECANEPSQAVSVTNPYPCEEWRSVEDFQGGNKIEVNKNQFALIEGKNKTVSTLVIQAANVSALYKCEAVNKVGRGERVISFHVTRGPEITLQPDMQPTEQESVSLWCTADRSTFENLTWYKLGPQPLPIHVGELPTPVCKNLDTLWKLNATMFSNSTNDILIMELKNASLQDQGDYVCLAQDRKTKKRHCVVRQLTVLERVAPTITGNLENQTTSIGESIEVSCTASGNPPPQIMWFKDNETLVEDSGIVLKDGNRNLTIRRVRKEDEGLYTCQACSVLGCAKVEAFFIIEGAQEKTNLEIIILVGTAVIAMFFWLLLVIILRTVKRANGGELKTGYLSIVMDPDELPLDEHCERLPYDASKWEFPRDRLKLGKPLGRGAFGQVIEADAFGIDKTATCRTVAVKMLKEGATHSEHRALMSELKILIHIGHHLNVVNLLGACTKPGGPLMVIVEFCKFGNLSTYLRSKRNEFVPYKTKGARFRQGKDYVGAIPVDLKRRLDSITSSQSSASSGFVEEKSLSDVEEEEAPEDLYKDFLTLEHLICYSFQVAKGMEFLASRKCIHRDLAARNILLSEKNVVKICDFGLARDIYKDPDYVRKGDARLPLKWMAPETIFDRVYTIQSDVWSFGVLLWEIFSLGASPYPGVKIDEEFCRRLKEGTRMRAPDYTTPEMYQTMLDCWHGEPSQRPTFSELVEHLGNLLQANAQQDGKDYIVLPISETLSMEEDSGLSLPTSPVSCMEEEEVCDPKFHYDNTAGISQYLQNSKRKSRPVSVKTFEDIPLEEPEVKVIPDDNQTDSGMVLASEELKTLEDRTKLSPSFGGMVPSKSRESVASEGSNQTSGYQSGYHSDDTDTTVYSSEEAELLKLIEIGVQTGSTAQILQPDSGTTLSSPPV
# assay_info: Kinase inhibition assay (33P transfer), Kdr
# Format: biochemical
# condition_details: Table 3; read-out: KDR-1
pIC50: −log10 of the molar value.
We begin with a simple list: items and their reported pIC50.

Solved entries:
Nc1ncnc(Nc2cccc(Cl)c2)n1 [Compound 1019] ... 4.80 to 4.97
COc1cc(Nc2ncnc(Nc3cccc(C(=O)O)c3)n2)cc(OC)c1OC [Compound 933] ... 5.22 to 6.00
COc1cc(Nc2ncnc(Nc3ccc4[nH]ncc4c3)n2)cc(OC)c1OC [Compound 79] ... > 5.99
COc1ccc(Nc2nc3ccccc3n2-c2ncnc(Nc3cc(OC)c(OC)c(OC)c3)n2)cc1 [Compound 397] ... > 6.10
COc1ccc(Nc2ncnc(Nc3cc(OC)c(OC)c(OC)c3)n2)cc1 [Compound 89] ... > 5.98
Nc1nc2ccccc2n1-c1ncnc(Cl)n1 [Compound 1029] ... 4.74 to 4.85

Please report the recorded pIC50 for COc1cc(Nc2ncnc(Nc3cccc(F)c3)n2)cc(OC)c1OC [Compound 304] .
> 5.97

Also COc1cccc(Nc2ncnc(-c3ccccc3)n2)c1 [Compound 13] , if possible.
< 4.79

Also COc1cc(Nc2ncnc(-n3cc(C)c4ccccc43)n2)cc(OC)c1OC [Compound 323] , if possible.
> 5.99

---

# assayed_system: Kdr (Homo sapiens, UniProt P35968)
# Construct: Kinases are expressed as either kinase domains or full length constructs; made in house
# assay_info: Kinase inhibition assay (33P transfer), Kdr
# Format: biochemical
# condition_details: read-out: KDR-1
# Excerpt: The inhibitor compounds described herein are screened in the following manner. […] Kinases are expressed as either kinase domains or full length constructs fused to glutathione S-transferase (GST) or polyHistidine tagged fusion proteins in either E. colior Baculovirus-High Five expression systems. […]
reported_metric: IC50

CC(=O)NS(=O)(=O)c1ccc(Nc2ncnc(N(C)c3cccc(Cl)c3)n2)cc1 ... 924 to 5540 nM

Please report the recorded IC50 for COc1ccc(Nc2ncccc2-c2ncnc(Nc3cc(OC)c(OC)c(OC)c3)n2)c(C)c1 .
< 843 nM

Also COc1cc(Nc2ncnc(-n3c(Nc4cccc(F)c4)nc4ccccc43)n2)cc(OC)c1OC , if possible.
< 821 nM

Also COc1cc(Nc2ncnc(-c3cccc4ccccc34)n2)cc(OC)c1OC , if possible.
1030 to 6180 nM

Also Cc1ccc2c(c1)CCCN2c1ncnc(NCc2cccnc2)n1 , if possible.
> 13500 nM

Also COc1ccc(Nc2ncnc(NCCC#N)n2)cc1OC , if possible.
> 15000 nM

Also COc1cc(Nc2ncnc(N3c4ccccc4CCC3C)n2)cc(OC)c1OC (centres unmarked) , if possible.
< 982 nM

---

# assayed_system: Itk (Homo sapiens)
# Construct: Kinases are expressed as either kinase domains or full length constructs; made in house
# assay_info: Kinase inhibition assay (33P transfer), Itk
# Assay type: biochemical
# condition_details: Table 3; read-out: Itk-1
# Description: The inhibitor compounds described herein are screened in the following manner. […] Kinases are expressed as either kinase domains or full length constructs fused to glutathione S-transferase (GST) or polyHistidine tagged fusion proteins in either E. colior Baculovirus-High Five expression systems. […] Kinase activity and inhibition are measured essentially by established protocols (Braunwalder et al., 1996). […]
reported_metric: IC50

Solved entries:
COc1cc(Nc2ncnc(Nc3ccc(C)c(N)c3)n2)cc(OC)c1OC ... 6.28 to 9.15 µM
Nc1ncnc(Nc2nc(-c3ccc(Cl)cc3)cs2)n1 ... > 14.8 µM
COc1cc(Nc2ncnc(N(C/C=C/c3ccccc3)c3ccc(Cl)cc3)n2)cc(OC)c1OC ... > 8.93 µM

Please report the recorded IC50 for CCOC(=O)Cc1ccc(Nc2ncnc(Nc3cc(-c4ccco4)n[nH]3)n2)cc1 .
8.63 to 11.1 µM

Also NC(=O)c1cccc(Nc2ncnc(-c3cccs3)n2)c1 , if possible.
> 15.1 µM

---

# assayed_system: EPHB4 (Homo sapiens, UniProt P54760)
# Sequence (P54760 16-987, species assumed): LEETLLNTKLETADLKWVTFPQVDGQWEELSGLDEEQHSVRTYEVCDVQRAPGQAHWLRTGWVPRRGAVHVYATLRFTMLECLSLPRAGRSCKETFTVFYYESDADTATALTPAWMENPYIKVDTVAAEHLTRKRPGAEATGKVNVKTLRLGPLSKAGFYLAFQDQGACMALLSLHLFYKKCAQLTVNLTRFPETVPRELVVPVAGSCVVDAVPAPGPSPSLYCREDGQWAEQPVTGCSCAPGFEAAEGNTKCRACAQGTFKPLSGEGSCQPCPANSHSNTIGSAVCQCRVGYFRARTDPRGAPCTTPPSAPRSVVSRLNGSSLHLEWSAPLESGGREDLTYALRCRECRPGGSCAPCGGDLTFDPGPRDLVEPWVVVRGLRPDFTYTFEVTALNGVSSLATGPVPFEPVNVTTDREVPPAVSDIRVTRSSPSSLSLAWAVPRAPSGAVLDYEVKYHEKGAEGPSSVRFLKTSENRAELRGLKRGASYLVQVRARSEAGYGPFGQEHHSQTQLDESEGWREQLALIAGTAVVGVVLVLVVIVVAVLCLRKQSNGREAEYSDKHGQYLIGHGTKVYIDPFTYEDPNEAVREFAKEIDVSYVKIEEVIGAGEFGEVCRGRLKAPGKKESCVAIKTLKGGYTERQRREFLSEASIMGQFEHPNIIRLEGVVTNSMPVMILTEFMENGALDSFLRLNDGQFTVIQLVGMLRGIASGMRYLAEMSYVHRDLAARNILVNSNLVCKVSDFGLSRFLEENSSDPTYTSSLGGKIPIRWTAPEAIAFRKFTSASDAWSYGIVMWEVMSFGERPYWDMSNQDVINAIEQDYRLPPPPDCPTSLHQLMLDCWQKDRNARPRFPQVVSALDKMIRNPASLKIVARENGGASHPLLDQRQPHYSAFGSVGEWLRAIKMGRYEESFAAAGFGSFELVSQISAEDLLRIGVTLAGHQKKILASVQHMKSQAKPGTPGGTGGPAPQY
pIC50: −log10 of the molar value.
reported_metric: pIC50

COc1cc(Nc2ncnc(-n3c(N)nc4cc([N+](=O)[O-])ccc43)n2)cc(OC)c1OC ... 5.26 to 6.04
COc1ccccc1Nc1ncnc(Nc2cc(OC)c(OC)c(OC)c2)n1 ... 5.20 to 5.98
COc1cc(Nc2ncnc(-n3c(Nc4ccc(F)cc4)nc4ccccc43)n2)cc(OC)c1OC ... < 5.03

Please report the recorded pIC50 for NC(=O)c1ccc(Nc2ncnc(-n3c(N)nc4ccccc43)n2)cc1 .
5.16 to 5.94

Also COc1cc(Nc2ncnc(Nc3ccc(C)c([N+](=O)[O-])c3)n2)cc(OC)c1OC , if possible.
5.24 to 6.01

Also c1coc(-c2cc(Nc3ncnc(Nc4ccc(N5CCOCC5)cc4)n3)[nH]n2)c1 , if possible.
5.23 to 6.00

Also NC(=O)c1cccc(Nc2ncnc(Nc3cc(-c4ccco4)n[nH]3)n2)c1 , if possible.
5.18 to 5.96

Also COCCOc1ccc(Nc2ncnc(Nc3ccc(C)c(O)c3)n2)cc1OC , if possible.
< 4.95

---

We begin with a simple list: items and their reported pIC50.
# assayed_system: Lck (Homo sapiens)
# Construct: Kinases are expressed as either kinase domains or full length constructs; made in house
# Sequence (P06239 whole entry, species assumed, the tested form may be a part): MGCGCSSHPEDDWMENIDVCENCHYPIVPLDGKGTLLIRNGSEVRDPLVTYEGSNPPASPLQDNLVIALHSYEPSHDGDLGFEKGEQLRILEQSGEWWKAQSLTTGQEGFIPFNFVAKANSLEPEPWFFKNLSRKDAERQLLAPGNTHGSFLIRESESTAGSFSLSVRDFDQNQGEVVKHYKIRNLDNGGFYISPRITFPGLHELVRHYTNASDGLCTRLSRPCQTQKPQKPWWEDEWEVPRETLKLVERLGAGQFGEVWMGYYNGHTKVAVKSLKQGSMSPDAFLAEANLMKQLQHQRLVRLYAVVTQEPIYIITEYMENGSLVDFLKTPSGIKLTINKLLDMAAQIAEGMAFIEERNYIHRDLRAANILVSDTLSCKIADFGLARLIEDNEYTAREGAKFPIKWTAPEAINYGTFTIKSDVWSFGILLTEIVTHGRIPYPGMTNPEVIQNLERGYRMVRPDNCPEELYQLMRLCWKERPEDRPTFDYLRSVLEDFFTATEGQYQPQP
# assay_info: Kinase inhibition assay (33P transfer), Lck
# Format: biochemical
# condition_details: read-out: Lck-1
pIC50: −log10 of the molar value.

Solved entries:
C=CCNc1ncccc1-c1ncnc(Nc2cc(OC)c(OC)c(OC)c2)n1 [Compound 1076] ... > 5.99
COc1cc(Nc2ncnc(-n3c(NCc4ccccn4)nc4ccccc43)n2)cc(OC)c1OCCn1ccnn1 [Compound 942] ... 5.21 to 5.37
COc1cc(Nc2ncnc(-c3cccnc3NCc3ccc(F)cc3)n2)cc(OC)c1OCCN1CCOCC1 [Compound 564] ... > 6.15
COc1cc(Nc2ncnc(-n3c(NCc4cccc(F)c4)nc4ccccc43)n2)cc(OC)c1OC [Compound 513] ... 5.32 to 6.10
Cc1ccc2c(c1)CCCN2c1ncnc(Nc2cccc(Cl)c2C)n1 [Compound 778] ... < 4.91
O=C(O)Cc1cccc(Nc2ncnc(Nc3cc(-c4ccccc4)n[nH]3)n2)c1 [Compound 981] ... 5.21 to 5.99

Please report the recorded pIC50 for c1ccc(CNc2nc3ccccc3n2-c2ncnc(Nc3cccc(Cc4nnn[nH]4)c3)n2)nc1 [Compound 958] .
5.30 to 6.08

Also COC(=O)c1ccc(-c2cc(Nc3ncnc(Nc4ccc(CO)cc4)n3)[nH]n2)cc1 [Compound 989] , if possible.
< 4.97

Also CN1CCN(Cc2cccc(Nc3ncnc(Nc4ccc5c(cnn5Cc5ccccc5)c4)n3)c2)CC1 [Compound 552] , if possible.
< 5.05

Also Fc1ccc(Nc2ncnc(Nc3ccc4cn[nH]c4c3)n2)cc1Cl [Compound 719] , if possible.
< 4.90

---

We begin with a simple list: items and their reported IC50.
# assayed_system: Itk (Homo sapiens, UniProt Q08881)
# Construct: Kinases are expressed as either kinase domains or full length constructs; made in house
# assay_info: Kinase inhibition assay (33P transfer), Itk
# Type: biochemical
# condition_details: read-out: Itk-1

Value wanted: IC50 (Itk (Homo sapiens, UniProt Q08881)) of entry COC(=O)Cc1cccc(Nc2ncnc(Nc3cccc(Br)c3)n2)c1
8.45 to 10.9 µM

Also COc1cc(Nc2ncnc(-n3c(NCc4ccc(F)cc4)nc4ccccc43)n2)cc(OC)c1OC , if possible.
> 8.97 µM

Also CN(c1cccc(Cl)c1)c1ncnc(Nc2cccc(CNC(=O)O[C@@H]3CCOC3)c2)n1 , if possible.
> 9.89 µM

Also COc1ccc(Cl)cc1Nc1ncnc(Nc2cc(OC)c(OC)c(OC)c2)n1 , if possible.
0.957 to 5.74 µM

Also COc1cc(OC)nc(Nc2ncnc(-n3c(=O)[nH]c4ccccc43)n2)n1 , if possible.
> 12.3 µM

Also COc1cc(Nc2ncnc(NC(=O)NCCc3ccccc3)n2)cc(OC)c1OC , if possible.
> 10.6 µM

Also O=c1[nH]c2ccccc2n1-c1ncnc(Nc2ccccc2[N+](=O)[O-])n1 , if possible.
> 12.9 µM

Also CCOC(=O)N1CCC(Nc2ncnc(N3CCCc4cc(C)ccc43)n2)CC1 , if possible.
> 11.3 µM

---

# assayed_system: Itk (Homo sapiens)
# Construct: Kinases are expressed as either kinase domains or full length constructs; made in house
# Sequence (Q08881 1-620): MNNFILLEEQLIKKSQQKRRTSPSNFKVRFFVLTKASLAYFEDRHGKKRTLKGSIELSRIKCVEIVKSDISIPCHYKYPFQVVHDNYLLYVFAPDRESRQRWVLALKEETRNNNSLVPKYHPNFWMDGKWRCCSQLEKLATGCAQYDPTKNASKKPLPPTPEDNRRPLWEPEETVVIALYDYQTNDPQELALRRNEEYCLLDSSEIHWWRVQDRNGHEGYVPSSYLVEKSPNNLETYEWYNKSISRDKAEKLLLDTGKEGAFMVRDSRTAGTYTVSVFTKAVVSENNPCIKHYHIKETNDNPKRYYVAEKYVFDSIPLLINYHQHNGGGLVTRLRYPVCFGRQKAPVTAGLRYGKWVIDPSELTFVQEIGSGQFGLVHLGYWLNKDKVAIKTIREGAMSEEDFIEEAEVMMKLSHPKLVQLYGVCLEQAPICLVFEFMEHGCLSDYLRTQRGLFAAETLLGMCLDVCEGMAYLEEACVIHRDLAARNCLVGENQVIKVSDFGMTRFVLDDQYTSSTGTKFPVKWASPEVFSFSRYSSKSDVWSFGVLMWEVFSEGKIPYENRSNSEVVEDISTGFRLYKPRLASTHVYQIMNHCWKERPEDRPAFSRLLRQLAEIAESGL
# assay_info: Kinase inhibition assay (33P transfer), Itk
# Type: biochemical
# condition_details: read-out: Itk-1
We begin with a simple list: items and their reported IC50.

Solved entries:
COc1ccc(Nc2ncnc(NCC(O)c3ccccc3)n2)cc1OC (centres unmarked) ... > 12.2 µM
COc1cc(Nc2ncnc(-n3c(NCc4ccc5c(c4)OCO5)nc4ccccc43)n2)cc(OC)c1OC ... > 8.53 µM
COc1cc(Nc2ncnc(NC3CCc4ccccc43)n2)cc(OC)c1OC (centres unmarked) ... > 11.4 µM

Please report the recorded IC50 for CC(=O)Nc1ccc(Nc2ncnc(N3CCCc4cc(C)ccc43)n2)cc1 .
> 12 µM

Also COc1cc(Nc2ncnc(Nc3cc(-c4cccc(Cl)c4)n[nH]3)n2)cc(OC)c1OC , if possible.
> 9.91 µM
